# credit: the supplement of paper PMC10567573

B1: ZNF263 (parent)
chain: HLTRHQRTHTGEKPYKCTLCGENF

variants of: B1; assay: protein stability index of a GFP-peptide fusion (GPS, HEK-293T) (PSI 1-6); higher = more stable; conditions: c terminus: a fixed tail appended;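 note: lentivirally expressed fusions sorted by FACS into six bins by GFP to DsRed ratio, PSI derived from sequencing read proportions per bin multiplied by bin number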
Decision: protein stability index >= 3 yields Satisfied, all other cases yield Not satisfied.

>  <MUTATION_DESCRIPTOR>
L19D

>  <ANSWER_LABEL>
Satisfied

$$$$
>  <MUTATION_DESCRIPTOR>
C20I

>  <ANSWER_LABEL>
Not satisfied

$$$$
>  <MUTATION_DESCRIPTOR>
C17G

>  <ANSWER_LABEL>
Satisfied

$$$$
>  <MUTATION_DESCRIPTOR>
T8K

>  <ANSWER_LABEL>
Not satisfied

$$$$
>  <MUTATION_DESCRIPTOR>
C17I

>  <ANSWER_LABEL>
Not satisfied

$$$$
>  <MUTATION_DESCRIPTOR>
C20Q

>  <ANSWER_LABEL>
Satisfied

$$$$
>  <MUTATION_DESCRIPTOR>
Q6P

>  <ANSWER_LABEL>
Not satisfied

$$$$
>  <MUTATION_DESCRIPTOR>
G21V

>  <ANSWER_LABEL>
Not satisfied

$$$$
>  <MUTATION_DESCRIPTOR>
G11W

>  <ANSWER_LABEL>
Not satisfied

$$$$
>  <MUTATION_DESCRIPTOR>
T3Y

>  <ANSWER_LABEL>
Not satisfied

$$$$
>  <MUTATION_DESCRIPTOR>
T18W

>  <ANSWER_LABEL>
Not satisfied

$$$$
>  <MUTATION_DESCRIPTOR>
Y15C

>  <ANSWER_LABEL>
Satisfied

$$$$
>  <MUTATION_DESCRIPTOR>
N23L

>  <ANSWER_LABEL>
Not satisfied

$$$$
>  <MUTATION_DESCRIPTOR>
H1N

>  <ANSWER_LABEL>
Satisfied

$$$$
>  <MUTATION_DESCRIPTOR>
T8N

>  <ANSWER_LABEL>
Satisfied

$$$$
>  <MUTATION_DESCRIPTOR>
Q6L

>  <ANSWER_LABEL>
Not satisfied

$$$$
>  <MUTATION_DESCRIPTOR>
N23H

>  <ANSWER_LABEL>
Not satisfied

$$$$
>  <MUTATION_DESCRIPTOR>
H9N

>  <ANSWER_LABEL>
Not satisfied

$$$$
